# credit: paper PMC10465233

For each record, write down the corresponding Tumor:Kidney uptake ratio.
# Tested on: LNCaP tumor-bearing mice
# Method: Ex vivo biodistribution in LNCaP tumor-bearing mice
# Parameters: species or system mouse
# Reported conditions: 1 h post-injection
When you answer, write just the number.

Complete the entry with Tumor:Kidney uptake ratio for O=C([O-])CN1CCN(CC(=O)[O-])CCN(CC(=O)NCC2CCC(C(=O)NC(Cc3c4ccccc4cc4ccccc34)C(=O)NCCCCC(NC(=O)NC(CSCC(=O)O)C(=O)O)C(=O)O)CC2)CCN(CC(=O)[O-])CC1.[68Ga+3] (centres unmarked) [[^68Ga]Ga-HTK03177] 3.25

Complete the entry with Tumor:Kidney uptake ratio for COc1ccc(CCCC(=O)NCC(=O)N[C@@H](CCCCNC(=O)CN2CCN(CC(=O)[O-])CCN(CC(=O)[O-])CCN(CC(=O)[O-])CC2)C(=O)NC[C@H]2CC[C@H](C(=O)N[C@@H](Cc3c4ccccc4cc4ccccc34)C(=O)NCCCC[C@H](NC(=O)N[C@@H](CSCC(=O)O)C(=O)O)C(=O)O)CC2)cc1.[177Lu+3] [[^177Lu]Lu-HTK04048] 0.99
